Below, each entry is listed alongside its reported GI50.
System: BT-549
Test: NCI tumour cell line growth inhibition, 48 h
Activity calls are given as the source filed them. Rule as the data show it: active = GI50 up to about 1.1 µM and inactive = higher.

Consider the reported GI50 for these compounds:
Cc1nc2ccc(Cl)cc2c(-n2ccnc2)c1CCn1ccnc1    19.8 µM (inactive)
CC(C)(C)CNCCO    > 100 µM (inactive)
COc1ccccc1C1c2cc3c(cc2OC2(OC)COC(=O)C12)OCO3 (stereo unspecified)    17.9 µM (inactive)
COc1ccc(N2C(=O)/C(=C/c3ccc(N(CCC#N)CCC#N)cc3)N=C2c2ccccc2)c(OC)c1    > 100 µM (inactive)
CC(C)OC(=O)c1cc(NC(=S)OC(C)C)ccc1Cl    18.2 µM (inactive)

// next entry
Lab note: O=C(c1cccc(OCc2ccccc2)c1OCc1ccccc1)N1CCSC1=S gave GI50 of 29.5 µM (inactive)

====

Test system: T47D
Test: NCI tumour cell line growth inhibition, 48 h
Calls of active or inactive are those of the source. Rule as the data show it: active = GI50 up to about 1.1 µM and inactive = higher.
Below, each entry is listed alongside its reported GI50.

Consider the reported GI50 for these molecules:
C=C1C(=O)OC2C1CCC(C)C1C=CC(=O)C12C (stereo not given)    2.45 µM (inactive)
CN(C)CCCOC(=O)C(O)(Cc1ccccc1)C1CC1 (stereo not given)    > 100 µM (inactive)

Lab note: CC(=O)NC(CCCCN(Cc1ccccc1)C(=O)N(CCCl)N=O)C(=O)NCc1ccccc1 (stereo not given) gave GI50 of 14.5 µM (inactive)

Lab note: Cc1ccc(S(=O)(=O)N(CC(O)COc2ccccc2)c2ccccc2Cl)cc1 (stereo not given) gave GI50 of 24.9 µM (inactive)

Lab note: O=C(Nc1ccccc1)N(C1=NCC(CI)S1)c1ccc(F)c(F)c1 (stereo not given) gave GI50 of 18.3 µM (inactive)

Lab note: O=C(/C=C/c1ccc2c(c1)OCO2)Cc1nc2ncccc2[nH]c1=O gave GI50 of 78.3 µM (inactive)

Lab note: COc1ccccc1NC(=S)Nc1cccc(C)n1 gave GI50 of > 100 µM (inactive)

Lab note: C[N+]1(CCCC[N+]2(C)CCCCCCC2)CCCCCCC1 gave GI50 of > 100 µM (inactive)

Lab note: CCCCCCCCCCCCCCCCCCNc1ccn(C2OC(COP(=O)(O)OCC3OC(n4cc(C)c(=O)[nH]c4=O)CC3O)C(O)C2O)c(=O)n1 (stereo not given) gave GI50 of 17.3 µM (inactive)

Lab note: CCOC(=O)c1c(SCc2ccccc2)nc2c3ccccc3ccn12 gave GI50 of > 100 µM (inactive)

====

Tested on: ACHN
Experiment: NCI tumour cell line growth inhibition, 48 h
The source made the active and inactive calls. Cut-off read from the data, not from the text of the source: active = GI50 up to about 1.1 µM and inactive = higher.
Form entry, call: pick from 1.0 (active), 0.0 (inactive)

Example cases with answers are listed next.
CC(=O)OC(OC(C)=O)c1ncccc1C(=O)OC(C)C    0.0
COc1ccc(N2C(=O)/C(=C/c3ccc(N(CCC#N)CCC#N)cc3)N=C2c2ccccc2)c(OC)c1    0.0
NC1(c2cc3ccccc3s2)CCCC1    0.0
CCC1(c2ccc(N)cc2)CCC(=O)NC1=O (stereo unspecified) [AMINOGLUTETHIMIDE]    0.0
COc1ccc(OC)c2sc(N3C(=O)/C(=C/c4ccc(Cl)cc4)N=C3c3ccccc3)nc12    0.0

// query Could you kindly confirm the outcome this assay logged for Cc1c(CNc2ccc(Cl)c(C(=O)NC(CC(=O)O)C(=O)O)c2)ccc2nc(N)nc(N)c12 (stereo unspecified) ?
// result 1.0

// query Could you kindly confirm the outcome this assay logged for CCCCNC(=S)OCCC(C)CCCC(C)C (stereo unspecified) ?
// result 0.0

// query Could you kindly confirm the outcome this assay logged for CN(C)c1ncnc2c1ncn2CCn1cnc2c(N(C)C)ncnc21 ?
// result 0.0

// query Could you kindly confirm the outcome this assay logged for CC(C)(C)CNCCO ?
// result 0.0

====

Below, each entry is listed alongside its reported GI50.
System: NCI-H460
Experiment: NCI tumour cell line growth inhibition, 48 h
Activity calls are given as the source filed them. Cut-off read from the data, not from the text of the source: active = GI50 up to about 1.1 µM and inactive = higher.

Consider the reported GI50 for these molecules:
Cn1c(=O)n(CC2CS2)c2ccccc21 (stereo not given)    > 100 µM (inactive)
CCCCC(C(=O)N/N=C/c1ccc([N+](=O)[O-])o1)C(=O)N/N=C/c1ccc([N+](=O)[O-])o1    15.1 µM (inactive)
CN(C)c1ccc(/C=C2\N=C(c3ccccc3)N(c3nc4ccc(Sc5ccccc5)cc4[nH]3)C2=O)cc1    30 µM (inactive)
CC(=O)O[C@@H]1C(C2CCCCC2)C=[N+]([O-])O[C@@H]1OC1CCCC1(c1ccccc1)c1ccccc1 (stereo not given in full)    13.3 µM (inactive)

NCI-H460 assay, molecule O=C1Nc2ccccc2/C1=C1/Nc2ccccc2/C1=N\OCCNCC(O)C(O)C(O)C(O)CO (stereo not given) , recorded GI50 = 18.1 µM (inactive)

====

Tested on: KM12
Experiment: NCI tumour cell line growth inhibition, 48 h
Active and inactive are the calls of the source. Rule as the data show it: active = GI50 up to about 1.1 µM and inactive = higher.
assayMetric: GI50

Consider the reported GI50 for these compounds:
CCOc1cc(NC(C)=O)ccc1C(=O)NNS(=O)(=O)c1ccc(NC(C)=O)cc1    41.5 µM (inactive)
COC(COC(=O)N1CCN(C=O)CC1)C1=C(N2CC2)C(=O)C(C)=C(N2CC2)C1=O (configuration not stated)    0.551 µM (active)
O=C(Nc1ccccc1)C(=O)C(C(=O)c1ccccc1F)C1OC(=O)c2ccccc21 (configuration not stated)    26.9 µM (inactive)

KM12 assay, compound Cc1nc2ccc(NCCN(C)C)c3c(=O)c4ccccc4n1c23 , recorded GI50 = 2.21 µM (inactive)

KM12 assay, compound CCNc1nc2ccccc2nc1NCC , recorded GI50 = > 100 µM (inactive)

KM12 assay, compound Cc1ccc([S+]([O-])c2ccccc2[N+](=O)[O-])cc1 (configuration not stated) , recorded GI50 = 54.6 µM (inactive)

KM12 assay, compound Cc1cc(N(CCC#N)CCC#N)ccc1/N=N/c1cccc(C(=O)O)c1 , recorded GI50 = > 100 µM (inactive)

KM12 assay, compound N#CC1(C#N)C2=C(CCCC2)NC(c2ccc(Br)cc2)C1(C#N)C#N (configuration not stated) , recorded GI50 = 15.1 µM (inactive)

KM12 assay, compound COC1=C(OC)C(O)(c2ccccc2)C1=O (configuration not stated) , recorded GI50 = > 100 µM (inactive)

KM12 assay, compound COc1ccc(CNc2nc3ccccc3nc2C(=O)O)cc1OC , recorded GI50 = > 100 µM (inactive)

KM12 assay, compound CC(C)(C)n1c(=O)n(C(=O)C(Cl)(Cl)Cl)n(C(=O)C(Cl)(Cl)Cl)c1=O , recorded GI50 = > 100 µM (inactive)

KM12 assay, compound COc1cc(C(O)CCBr)c(OC)cc1C (configuration not stated) , recorded GI50 = 29.9 µM (inactive)

KM12 assay, compound Nc1ccc2c(c1)S(=O)(=O)c1cc(O)ccc1O2 , recorded GI50 = > 100 µM (inactive)

KM12 assay, compound O=C1CCC2(CC1)Cc1ccccc1C2O (configuration not stated) , recorded GI50 = > 100 µM (inactive)

====

Tested on: SR
Test: NCI tumour cell line growth inhibition, 48 h
Active and inactive are the calls of the source. No stated cut-off is given here; in the data, active = GI50 up to about 1.1 µM and inactive = higher.
assayMetric: GI50

C[N+]1(CCCC[N+]2(C)CCCCCCC2)CCCCCCC1    > 100 µM (inactive)
CCOCc1c(C)cc(C)c(C2C(C(=O)c3ccccc3)N3c4ccccc4C=CC3C2(C#N)C(=O)OCC)c1C (centres undefined)    82.8 µM (inactive)

SR assay, compound CC(C)(C)OC(=O)NC1CCCC1C(O)(C1=CCCC1)C1=CCCC1 (centres undefined) , recorded GI50 = > 100 µM (inactive)

SR assay, compound COc1ccc(N2C(=O)C3c4[nH]c5ccccc5c4C4CCC(C(C)(C)C)CC4C3C2=O)c(C)c1 (centres undefined) , recorded GI50 = > 100 µM (inactive)

====

Test system: HL-60
Test: NCI tumour cell line growth inhibition, 48 h
Activity calls are given as the source filed them. Rule as the data show it: active = GI50 up to about 1.1 µM and inactive = higher.
Form entry, call: pick from 1 (active), 0 (inactive)

Example cases with answers are listed next.
C[C@@H](c1ccccc1)N1CO[C@@]2(C#Cc3ccc4c(c3)OCO4)CCC[C@@H]12    0
Cc1cccc(C2NC(=O)c3ccccc3N2)c1 (configuration not stated)    1
O=C(N/N=C(/c1ccccc1)C(F)(F)F)c1ccncc1    0

// query Could you kindly confirm the outcome this assay logged for CCOCc1c(C)cc(C)c(C2C(C(=O)c3ccccc3)N3c4ccccc4C=CC3C2(C#N)C(=O)OCC)c1C (configuration not stated) ?
// result 0

// query Could you kindly confirm the outcome this assay logged for COc1ccc(OC)c2sc(N3C(=O)/C(=C/c4ccc(Cl)cc4)N=C3c3ccccc3)nc12 ?
// result 0

// query Could you kindly confirm the outcome this assay logged for NC(Cc1cccnn1)C(=O)O (configuration not stated) ?
// result 0

// query Could you kindly confirm the outcome this assay logged for O=S(=O)(O)CCSSCCS(=O)(=O)O ?
// result 0
